A collection of sequences and their measured % of cells in phase: G0/G1
test system: Jurkat human leukemia T cells; test: Cell cycle stage in Jurkat cells (propidium iodide flow cytometry); assay type: cell-based; details: Jurkat, 24 h, 100 μg/ml
Endpoint Label: % of cells in phase: G0/G1 (%)

Sequence Input | Units Symbol | Numeric Value
GGGTGG [SEQ ID NO:25] | % | 28.5
GGGGGTGGGGGTGGGGGTGGGGGTGGG (unmodified DNA) [SEQ ID NO:3] | % | 40.5
GTGTGTGTGTGTGTGTGTGTGTGTGTG [SEQ ID NO:1] (chemistry not given here) | % | 40.6
TTAGGG (phosphodiester backbone) [SEQ ID NO:49, reference compound] | % | 24.6
GGGGGGGTGGGGGGGTGGGGGGGTGGG (unmodified DNA) [SEQ ID NO:4] | % | 36.5
AACCACAAGCCCAAC (DNA, backbone not given here) [SEQ ID NO:67] | % | 39.6
GGAAGG (unmodified DNA) [SEQ ID NO:42] | % | 48.0
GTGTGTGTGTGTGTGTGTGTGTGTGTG (DNA, backbone not given here; further chemistry not fully specified) [SEQ ID NO:1 phosphorothioate] | % | 33.7
GGGTGG [SEQ ID NO:25 phosphorothioate] | % | 34.9
GGCCGG [SEQ ID NO:43] | % | 26.5
TTGTTT [SEQ ID NO:26] | % | 32.6
TCCATCGCCAAGGAGATCGAGCTGGAGGATCCGTACGAGAAGATC (unmodified DNA) [BCG A-3, reference compound] | % | 32.3
GTGTGT [SEQ ID NO:10] | % | 30.8
GTGTGTGTGTGTGTGTGT (unmodified DNA) [SEQ ID NO:18] | % | 24.2
GGGTGGGTGGGTGGGTGGGTGGGTGGG [SEQ ID NO:2] | % | 34.3
AGGTGA [SEQ ID NO:31] | % | 35.2
AAAGAGGGGCATGACCCGGTGCGGGGGTTCTTGCACTCGGCATAG (unmodified DNA) [BCG A-1, reference compound] | % | 19.8

* * *

A collection of sequences and their measured IL-12 fold increase: mean +/− SD
Tested on: human peripheral blood mononuclear cells
Experiment: Cytokine production by human PBMC (ELISA)
Format: cell-based
Details: PBMC of 7 healthy humans, 100 μg/ml, 48 h
Method: Unless stated otherwise, 1×10^6 cells were incubated with 100 μg/ml of each of the sequences tested for 48 h at 37° C. in 5% CO2. Production of cytokines IL-6, IL-10, IL-12, IL-1beta and TNF-alpha was determined in pg/ml in 100 μl of culture supernatant using the appropriate commercial ELISA (BioSource, Camarillo Calif.). […] Results are expressed as the “fold” (×) increase in cytokine production by treated cells compared to control cells. […]
Endpoint Label: IL-12 fold increase: mean +/− SD

Sequence Input | Result
GGAAGG (unmodified DNA) [SEQ ID NO:42] | 3.0 +/− 2.7 fold increase
TTGTTT [SEQ ID NO:26] | 1.6 +/− 1.3 fold increase
GTGTGTGTGTGT [SEQ ID NO:14] | 2.0 +/− 1.1 fold increase
GTGTGT [SEQ ID NO:10] | 4.0 +/− 6.3 fold increase
GGGGGG [SEQ ID NO:44] | 7.0 +/− 12.5 fold increase
TGTGTGTGTGTG [SEQ ID NO:13] | 4.4 +/− 5.3 fold increase
GGGCGG (unmodified DNA) [SEQ ID NO:46] | 3.0 +/− 3.8 fold increase
TGGTTG [SEQ ID NO:29] | 3.3 +/− 4.2 fold increase
TGTGTG [SEQ ID NO:9] | 2.7 +/− 2.6 fold increase
CTGTCT [SEQ ID NO:36] | 1.2 +/− 0.3 fold increase
GGCCGG [SEQ ID NO:43] | 2.5 +/− 2.0 fold increase
GGGAGG (unmodified DNA) [SEQ ID NO:45] | 20.7 +/− 10.3 fold increase
CCGTCC [SEQ ID NO:28] | 5.9 +/− 10.7 fold increase
TCGTTC [SEQ ID NO:37] | 1.4 +/− 1.1 fold increase
ATGTAT (unmodified DNA) [SEQ ID NO:30] | 1.3 +/− 0.2 fold increase
GGTGGG [SEQ ID NO:24] | 2.3 +/− 1.6 fold increase
GGGTGG [SEQ ID NO:25] | 13.2 +/− 11.5 fold increase
GGTTGG [SEQ ID NO:41] | 4.9 +/− 8.6 fold increase
TTTGTT [SEQ ID NO:23] | 1.1 +/− 0.3 fold increase
AAGTAA [SEQ ID NO:27] | 2.4 +/− 2.2 fold increase

* * *

system: THP-1 human acute monocytic leukemia cells; test: Cytokine production by THP-1 cells (ELISA); type: cell-based; settings: THP-1, 1×10^6 cells, 100 μg/ml, 48 h
A collection of sequences and their measured ↑ IL-6 (fold increase treated vs control cells)
Endpoint Label: ↑ IL-6 (fold increase treated vs control cells) (x)

Sequence Input | Units Symbol | Numeric Value
ATGTAT (unmodified DNA) [SEQ ID NO:30] | x | 9.8
AAAAGAAGTGGGGTGCCCCCACGATCACCAACGATGGTGTGTCCA (unmodified DNA) [BCG A-2, reference compound] | x | 3.9
GTGTGTGTG (chemistry not given here) [SEQ ID NO:12] | x | 5.4
TTTGTT [SEQ ID NO:23] | x | 4.9
GGAAGG (unmodified DNA) [SEQ ID NO:42] | x | 29.2
GAGTGA [SEQ ID NO:32] | x | 5.8
GTGTGTGTGTGTGTG (unmodified DNA) [SEQ ID NO:16] | x | 2.6
TGTGTGTGTGTGTGTGTG (unmodified DNA) [SEQ ID NO:17] | x | 2.2
ACGCCGACGTCGTCTGTGGTGGGGTGTCTACCGCCAACGCGACGG (unmodified DNA) [BCG M-3, reference compound] | x | 2.5
GGGAGG (unmodified DNA) [SEQ ID NO:45] | x | 23.2
CTGTCT [SEQ ID NO:36] | x | 15.9
TTAGGG (phosphodiester backbone) [SEQ ID NO:49, reference compound] | x | 6.7
GGGTGG [SEQ ID NO:25] | x | 3.1
TGTGTGTGT (unmodified DNA) [SEQ ID NO:11] | x | 5.4
GGGTCT [SEQ ID NO:33] | x | 3.1
AAAGAGGGGCATGACCCGGTGCGGGGGTTCTTGCACTCGGCATAG (unmodified DNA) [BCG A-1, reference compound] | x | 2.6
TGGTTG [SEQ ID NO:29] | x | 10.5
GGTGGG [SEQ ID NO:24] | x | 6.9
GTGTGT [SEQ ID NO:10] | x | 5.0
GGGTTT [SEQ ID NO:40] | x | 14.0
TTGTTT [SEQ ID NO:26] | x | 5.3
GGTTGG [SEQ ID NO:41] | x | 16.0
TGTGTGTGTGTGTG (chemistry not given here) [SEQ ID NO:15] | x | 1.0

* * *

A collection of sequences and their measured % of cells in phase: SE
system: Jurkat human leukemia T cells; assay: Cell cycle stage in Jurkat cells (propidium iodide flow cytometry); assay type: cell-based; settings: Jurkat, 24 h, 100 μg/ml
Endpoint Label: % of cells in phase: SE (%)

Sequence Input | Units Symbol | Numeric Value
GGGTGG [SEQ ID NO:25 phosphorothioate] | % | 14.8
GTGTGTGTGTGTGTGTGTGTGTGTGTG (DNA, backbone not given here; further chemistry not fully specified) [SEQ ID NO:1 phosphorothioate] | % | 17.6
GGAAGG (unmodified DNA) [SEQ ID NO:42] | % | 19.8
AGGTGA [SEQ ID NO:31] | % | 29.1
AAAGAGGGGCATGACCCGGTGCGGGGGTTCTTGCACTCGGCATAG (unmodified DNA) [BCG A-1, reference compound] | % | 31.7
GGGGGGGTGGGGGGGTGGGGGGGTGGG (unmodified DNA) [SEQ ID NO:4] | % | 16.3
TTGTTT [SEQ ID NO:26] | % | 11.5
GTGTGT [SEQ ID NO:10] | % | 41.9
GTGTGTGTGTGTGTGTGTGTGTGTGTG [SEQ ID NO:1] (chemistry not given here) | % | 35.6
GGCCGG [SEQ ID NO:43] | % | 21.3
TTAGGG (phosphodiester backbone) [SEQ ID NO:49, reference compound] | % | 37.2
AACCACAAGCCCAAC (DNA, backbone not given here) [SEQ ID NO:67] | % | 13.5
GTGTGTGTGTGTGTGTGT (unmodified DNA) [SEQ ID NO:18] | % | 26.7
GGGTGG [SEQ ID NO:25] | % | 46.3
GGGTGGGTGGGTGGGTGGGTGGGTGGG [SEQ ID NO:2] | % | 15.5
TCCATCGCCAAGGAGATCGAGCTGGAGGATCCGTACGAGAAGATC (unmodified DNA) [BCG A-3, reference compound] | % | 20.2
GGGGGTGGGGGTGGGGGTGGGGGTGGG (unmodified DNA) [SEQ ID NO:3] | % | 13.3
